// each record: one item and its IC50 for 72 kDa type IV collagenase (Homo sapiens, UniProt P08253)
Non-standard residues stand in square brackets, D forms with d. Residues, ends and D or L forms follow the SMILES beside them. *: point of attachment. Benzenesulfonyl(4-OPh) = O=S(=O)(c1ccc(Oc2ccccc2)cc1)*; NMeI = CC[C@H](C)[C@H](NC)C(=O)O; NMeE = CN[C@@H](CCC(=O)O)C(=O)O; β3hP = O=C(O)C[C@@H]1CCCN1; Orn = NCCC[C@H](N)C(=O)O; Dab = NCC[C@H](N)C(=O)O; Dap = NC[C@H](N)C(=O)O; GABA = NCCCC(=O)O
Write the value in nM as a bare number.

- Compound: "CC[C@H](C)[C@@H](C(=O)N1CCC[C@H]1CC(N)=O)N(C)C(=O)[C@H](CC(C)C)NC(=O)[C@H](CCCN)NC(=O)[C@H](CC(=O)O)NC(=O)[C@H](CC(N)=O)NC(=O)CCCNS(=O)(=O)c1ccc(Oc2ccccc2)cc1 ({Benzenesulfonyl(4-OPh)-GABA}-ND[Orn]L[NMeI][β3hP]-NH2)"
  Unit of measurement: "nM"
  IC50: 0.61
- Compound: "CC(C)C[C@H](NC(=O)[C@H](CCN)NC(=O)[C@H](CC(=O)O)NC(=O)[C@H](CC(N)=O)NC(=O)CCCNS(=O)(=O)c1ccc(Oc2ccccc2)cc1)C(=O)N(C)[C@@H](CCC(=O)O)C(=O)N1CCC[C@H]1CC(N)=O ({Benzenesulfonyl(4-OPh)-GABA}-ND[Dab]L[NMeE][β3hP]-NH2)"
  Unit of measurement: "nM"
  IC50: 0.068

Now let's try a different one.
So the reported IC50 for CC[C@H](C)[C@@H](C(=O)N1CCC[C@H]1CC(N)=O)N(C)C(=O)[C@H](CC(C)C)NC(=O)[C@H](CN)NC(=O)[C@H](CC(=O)O)NC(=O)[C@H](CC(N)=O)NC(=O)CCCNS(=O)(=O)c1ccc(Oc2ccccc2)cc1 ({Benzenesulfonyl(4-OPh)-GABA}-ND[Dap]L[NMeI][β3hP]-NH2) , on 72 kDa type IV collagenase (Homo sapiens, UniProt P08253), turned out to be 0.13

---

- System name: CYP3A4 (Homo sapiens, UniProt P08684)
- Sequence (P08684 whole entry): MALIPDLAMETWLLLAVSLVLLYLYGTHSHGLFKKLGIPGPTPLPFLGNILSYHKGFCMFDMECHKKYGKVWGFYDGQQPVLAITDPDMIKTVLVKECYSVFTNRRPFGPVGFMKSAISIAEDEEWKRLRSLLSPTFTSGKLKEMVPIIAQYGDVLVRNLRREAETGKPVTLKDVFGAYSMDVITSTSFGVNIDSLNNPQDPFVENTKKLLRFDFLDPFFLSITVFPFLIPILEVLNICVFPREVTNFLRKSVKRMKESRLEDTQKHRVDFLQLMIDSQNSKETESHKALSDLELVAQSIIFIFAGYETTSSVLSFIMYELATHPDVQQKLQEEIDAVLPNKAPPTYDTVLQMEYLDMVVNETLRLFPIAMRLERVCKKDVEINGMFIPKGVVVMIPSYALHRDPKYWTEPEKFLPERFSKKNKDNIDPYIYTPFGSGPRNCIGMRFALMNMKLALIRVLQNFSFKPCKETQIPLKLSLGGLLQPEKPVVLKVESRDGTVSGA
- Protocol text: Inhibition of CYP3A4 in human liver microsomes at 10 uM using midazolam as substrate preincubated for 5 mins followed by addition of NADPH measured after 5 mins by LC/MS/MS analysis relative to control
- Assay type: ADME, Microsome
- Conditions: probe midazolam
Non-standard residues stand in square brackets, D forms with d. Residues, ends and D or L forms follow the SMILES beside them. *: point of attachment. Benzoyl(4-OPh(4-CONH2)) = NC(=O)c1ccc(Oc2ccc(C(=O)*)cc2)cc1; NMeE = CN[C@@H](CCC(=O)O)C(=O)O; β3hP = O=C(O)C[C@@H]1CCCN1; Dab = NCC[C@H](N)C(=O)O; Ava = NCCCCC(=O)O
Quantity name: inhibition at 5 min, 10 µM (%)
Give your result in % as a bare value.

Short answer for CC(C)C[C@H](NC(=O)[C@H](CCN)NC(=O)[C@H](CC(=O)O)NC(=O)[C@H](CCC(=O)O)NC(=O)CCCCNC(=O)c1ccc(Oc2ccc(C(N)=O)cc2)cc1)C(=O)N(C)[C@@H](CCC(=O)O)C(=O)N1CCC[C@H]1CC(N)=O ({Benzoyl(4-OPh(4-CONH2))-Ava}-ED[Dab]L[NMeE][β3hP]-NH2) : inhibition at 5 min, 10 µM was -2.4

---

Non-standard residues stand in square brackets, D forms with d. Residues, ends and D or L forms follow the SMILES beside them. *: point of attachment. Benzenesulfonyl(4-OPh) = O=S(=O)(c1ccc(Oc2ccccc2)cc1)*; NMeM = CN[C@@H](CCSC)C(=O)O; NMeV = CN[C@H](C(=O)O)C(C)C; β3hP = O=C(O)C[C@@H]1CCCN1; GABA = NCCCC(=O)O
Reported IC50 for target or system UniProt P45452, by entry.
Response body: numeric value in nM, unit text excluded.

Worked set:
- Molecule: "CSCC[C@@H](C(=O)N1CCC[C@H]1CC(N)=O)N(C)C(=O)[C@H](CC(C)C)NC(=O)[C@H](C)NC(=O)[C@H](CC(=O)O)NC(=O)[C@H](CC(N)=O)NC(=O)CCCNS(=O)(=O)c1ccc(Oc2ccccc2)cc1 ({Benzenesulfonyl(4-OPh)-GABA}-NDAL[NMeM][β3hP]-NH2)"
  Unit of measurement: "nM"
  IC50: 5.8
- Molecule: "CSCC[C@H](NC(=O)[C@H](CC(C)C)NC(=O)[C@H](C)NC(=O)[C@H](CC(=O)O)NC(=O)[C@H](CC(N)=O)NC(=O)CNS(=O)(=O)c1ccc(Oc2ccccc2)cc1)C(=O)N1CCC[C@H]1C(N)=O ({Benzenesulfonyl(4-OPh)}-GNDALMP-NH2)"
  Unit of measurement: "nM"
  IC50: 6470

Measured on UniProt P45452, CC(C)C[C@H](NC(=O)[C@H](C)NC(=O)[C@H](CC(=O)O)NC(=O)[C@H](CC(N)=O)NC(=O)CCCNS(=O)(=O)c1ccc(Oc2ccccc2)cc1)C(=O)N(C)[C@H](C(=O)N1CCC[C@H]1CC(N)=O)C(C)C ({Benzenesulfonyl(4-OPh)-GABA}-NDAL[NMeV][β3hP]-NH2) has a documented IC50 of 25

---

- Species: Homo sapiens
- Protocol text: Selectivity ratio of IC50 for recombinant human MMP12 to IC50 for recombinant human MMP2
Non-standard residues stand in square brackets, D forms with d. Residues, ends and D or L forms follow the SMILES beside them. *: point of attachment. Benzoyl(4-OPh(4-CONH2)) = NC(=O)c1ccc(Oc2ccc(C(=O)*)cc2)cc1; Benzenesulfonyl(4-OPh) = O=S(=O)(c1ccc(Oc2ccccc2)cc1)*; Benzenesulfonyl(4-Ph) = O=S(=O)(c1ccc(-c2ccccc2)cc1)*; NMeI = CC[C@H](C)[C@H](NC)C(=O)O; NMeE = CN[C@@H](CCC(=O)O)C(=O)O; NMeL = CN[C@@H](CC(C)C)C(=O)O; β3hP = O=C(O)C[C@@H]1CCCN1; Orn = NCCC[C@H](N)C(=O)O; Dab = NCC[C@H](N)C(=O)O; Dap = NC[C@H](N)C(=O)O; Ahx = NCCCCCC(=O)O; Ava = NCCCCC(=O)O; GABA = NCCCC(=O)O
Quantity name: Ratio IC50
Give the figure by itself; no unit, no explanation.

Worked set:
- Compound: "CC(C)C[C@H](NC(=O)[C@H](C)NC(=O)[C@H](CC(=O)O)NC(=O)[C@H](CC(N)=O)NC(=O)CCCNS(=O)(=O)c1ccc(Oc2ccccc2)cc1)C(=O)N(C)[C@@H](CC(C)C)C(=O)N1CCC[C@H]1CC(N)=O ({Benzenesulfonyl(4-OPh)-GABA}-NDAL[NMeL][β3hP]-NH2)"
  Ratio IC50: 24
- Compound: "CC(C)C[C@H](NC(=O)[C@H](CCN)NC(=O)[C@H](CC(=O)O)NC(=O)[C@H](CC(N)=O)NC(=O)CCCCCNC(=O)c1ccc(Oc2ccc(C(N)=O)cc2)cc1)C(=O)N(C)[C@@H](CCC(=O)O)C(=O)N1CCC[C@H]1CC(N)=O ({Benzoyl(4-OPh(4-CONH2))-Ahx}-ND[Dab]L[NMeE][β3hP]-NH2)"
  Ratio IC50: 15600
- Compound: "CC(C)C[C@H](NC(=O)[C@H](CCN)NC(=O)[C@H](CC(=O)O)NC(=O)[C@H](CC(N)=O)NC(=O)CCCNS(=O)(=O)c1ccc(Oc2ccccc2)cc1)C(=O)N(C)[C@@H](CCC(=O)O)C(=O)N1CCC[C@H]1CC(N)=O ({Benzenesulfonyl(4-OPh)-GABA}-ND[Dab]L[NMeE][β3hP]-NH2)"
  Ratio IC50: 7240
- Compound: "CC(C)C[C@H](NC(=O)[C@H](CCN)NC(=O)[C@H](CC(=O)O)NC(=O)[C@H](CC(N)=O)NC(=O)CCCNC(=O)c1ccc(Oc2ccc(C(N)=O)cc2)cc1)C(=O)N(C)[C@@H](CCC(=O)O)C(=O)N1CCC[C@H]1CC(N)=O ({Benzoyl(4-OPh(4-CONH2))-GABA}-ND[Dab]L[NMeE][β3hP]-NH2)"
  Ratio IC50: 23100
- Compound: "CC[C@H](C)[C@@H](C(=O)N1CCC[C@H]1CC(N)=O)N(C)C(=O)[C@H](CC(C)C)NC(=O)[C@H](CCCN)NC(=O)[C@H](CC(=O)O)NC(=O)[C@H](CC(N)=O)NC(=O)CCCNS(=O)(=O)c1ccc(Oc2ccccc2)cc1 ({Benzenesulfonyl(4-OPh)-GABA}-ND[Orn]L[NMeI][β3hP]-NH2)"
  Ratio IC50: 189

// field: Ratio IC50; key: CSCC[C@H](NC(=O)[C@H](CC(C)C)NC(=O)[C@H](C)NC(=O)[C@H](CC(=O)O)NC(=O)[C@H](CC(N)=O)NC(=O)CCCCNS(=O)(=O)c1ccc(-c2ccccc2)cc1)C(=O)N1CCC[C@H]1C(N)=O ({Benzenesulfonyl(4-Ph)-Ava}-NDALMP-NH2) ; value = 12

The recorded Ratio IC50 for CC[C@H](C)[C@@H](C(=O)N1CCC[C@H]1CC(N)=O)N(C)C(=O)[C@H](CC(C)C)NC(=O)[C@H](CN)NC(=O)[C@H](CC(=O)O)NC(=O)[C@H](CC(N)=O)NC(=O)CCCNS(=O)(=O)c1ccc(Oc2ccccc2)cc1 ({Benzenesulfonyl(4-OPh)-GABA}-ND[Dap]L[NMeI][β3hP]-NH2) is 977
